These entries and their values trace back to the Human Domainome abundance scans (Beltran et al. 2025).

B1: CD2-associated protein, residues 109 to 169; numbered along this chain, Q9Y5K6 (parent)
chain: KKRQCKVLFEYIPQNEDELELKVGDIIDINEEVEEGWWSGTLNNKLGLFPSNFVKELEVTD

# Variants of: B1
# experiment summary: abundance fitness (aPCA) (normalised: wild type 0, dead -1); higher = more abundant; growth selection in yeast, the domain comes from the species named
# assay context: Homo sapiens
observable: abundance fitness

Solved cases (3 shown):
Inquiry: Request the reported abundance fitness associated with `N43Q`
Reply text: -0.275

Inquiry: Quick one: `F53R`
Reply text: 0.007

Inquiry: Please answer likewise for `E34M`
Reply text: -0.045

Others:
Inquiry: Dear colleague, I am looking for the recorded abundance fitness of the following variant: `G47M`
Reply text: -1.21

Inquiry: How about this variant: `L42E`
Reply text: -0.922

Inquiry: Query `L42Q` next
Reply text: -0.432

Inquiry: // same read-out, input: `N43K`
Reply text: -0.544

Inquiry: Repeat for the following variant: `N30D`
Reply text: -0.123

Inquiry: Request: `E56C`
Reply text: 0.034

Inquiry: Ok, now `D61N`
Reply text: -0.273

Inquiry: Check `L46W` too.
Reply text: 0.013
